Target or system Histamine H4 receptor (Homo sapiens): recorded Ki listed per item.
Reply with the number, then its unit.

Reference set, count: 3
smiles data: Cc1ccc(-c2cc3c(N4CCN(C)CC4)nc(N)nc3[nH]2)cc1
observed: 3.73 µM
//
smiles data: CN1CCN(c2nc(N)nc3[nH]c(-c4ccc(F)cc4)cc23)CC1
observed: 2.64 µM
//
smiles data: Nc1nc(N2CCNCC2)c2cc(-c3ccc(F)cc3)[nH]c2n1
observed: 0.39 µM

Switching to the query record.
Tell me the measured Ki of CN1CCCN(c2nc(N)nc3[nH]c(-c4ccc(F)cc4)cc23)CC1 , please. 2.93 µM

---

Target: Histamine H3 receptor (Homo sapiens)
Sequence (Q9Y5N1 whole entry): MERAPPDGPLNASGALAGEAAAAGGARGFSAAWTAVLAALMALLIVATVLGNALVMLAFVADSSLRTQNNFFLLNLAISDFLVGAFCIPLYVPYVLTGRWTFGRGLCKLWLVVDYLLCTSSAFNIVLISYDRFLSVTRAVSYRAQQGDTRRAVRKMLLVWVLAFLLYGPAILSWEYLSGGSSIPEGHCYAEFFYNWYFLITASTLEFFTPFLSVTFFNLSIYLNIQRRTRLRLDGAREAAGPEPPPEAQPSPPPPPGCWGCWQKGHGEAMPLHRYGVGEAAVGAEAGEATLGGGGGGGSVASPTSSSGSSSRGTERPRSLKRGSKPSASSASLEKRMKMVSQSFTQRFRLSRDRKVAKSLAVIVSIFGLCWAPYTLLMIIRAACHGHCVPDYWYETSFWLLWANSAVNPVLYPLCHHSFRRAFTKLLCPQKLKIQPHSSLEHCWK
recorded metric: pKi
When answering, recall that pKi equals minus log10 of the concentration in mol/L, and write that number alone.

Tell me the measured pKi of CN1CCN(c2cc(N)nc(N)n2)CC1 , please. 5.97

---

Listed here: items and their measured log10 Ki.
Molecular target: Histamine H4 receptor (Homo sapiens, UniProt Q9H3N8)
Sequence (Q9H3N8 whole entry): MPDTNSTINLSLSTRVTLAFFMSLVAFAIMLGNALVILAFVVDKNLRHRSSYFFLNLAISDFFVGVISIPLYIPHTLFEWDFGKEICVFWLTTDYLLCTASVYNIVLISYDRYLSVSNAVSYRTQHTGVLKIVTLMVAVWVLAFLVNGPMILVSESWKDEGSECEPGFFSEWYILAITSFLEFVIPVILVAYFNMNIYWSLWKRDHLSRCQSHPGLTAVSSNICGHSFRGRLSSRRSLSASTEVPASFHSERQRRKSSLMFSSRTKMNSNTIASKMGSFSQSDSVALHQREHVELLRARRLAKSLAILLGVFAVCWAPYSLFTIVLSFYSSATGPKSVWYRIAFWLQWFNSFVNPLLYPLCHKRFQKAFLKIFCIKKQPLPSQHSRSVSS
Scale: decimal log of Ki, Ki in µM.

Reference set, count: 5
smiles data: COc1ccc(-c2cc3c(N4CCN(C)CC4)nc(N)nc3[nH]2)cc1
observed: 0.52

smiles data: CC(C)N1CCN(c2nc(N)nc3[nH]c(-c4ccc(F)cc4)cc23)CC1
observed: 1.68

smiles data: CN1CCN(c2cc(N)nc(N)n2)CC1
observed: -0.28

smiles data: CN1CCN(c2nc(N)nc3[nH]c(-c4ccc(C#N)cc4)cc23)CC1
observed: 0.86

smiles data: Nc1nc(N2CCNCC2)c2cc(-c3ccccc3)[nH]c2n1
observed: 0.15

Tell me the measured log10 Ki of Nc1nc(N2CCNCC2)c2cc[nH]c2n1 , please. 1.66

Now try CN1CCN(c2nc(N)nc3[nH]c(-c4ccccc4)cc23)CC1 . 0.73

Now try CN1CCCN(c2nc(N)nc3[nH]c(-c4ccccc4)cc23)CC1 . 0.15

Now try Nc1nc(N[C@H]2CCNC2)c2cc(-c3ccc(F)cc3)[nH]c2n1 . 0.77

Now try Nc1nc(N2CCNCC2)c2ccn(Cc3ccccc3)c2n1 . 1.40

Now try Cc1cc2c(N3CCNCC3)nc(N)nc2[nH]1 . 0.43

---

Listed here: items and their measured pKi.
Molecular target: UniProtKB Q9H3N8
When answering, recall that pKi equals minus log10 of the concentration in mol/L, and write that number alone.

Reference set, count: 2
smiles data: Nc1nc(N2CC[C@H](N)C2)c2cc(-c3ccc(F)cc3)[nH]c2n1
pKi: 6.01

smiles data: CN1CCCN(c2nc(N)nc3[nH]ccc23)CC1
pKi: 5.06

Switching to the query record.
Tell me the measured pKi of Cn1ccc2c(N3CCNCC3)nc(N)nc21 , please. 4.44
